Entry source: patent US9980943B2

Reported CMV-LACZ in Myoblasts, value relative to DMSO values follow for various compounds
test system: β-galactosidase in CMV-LacZ C2C12 myoblasts; test: CMV-LacZ secondary screen in C2C12 myoblasts (β-Gal stabilizing assay); format: cell-based, mouse; settings: 5 uM; SU9516 analogs, C2C12 CMV-LacZ, N=2
Measured metric: CMV-LACZ in Myoblasts, value relative to DMSO

> print(dat)
                                    compound  quantitative.result
 1  C=CCOc1ccc(C(=O)/C=C2/C(=O)Nc3ccccc32)cc1 [MLS001214264-01]               1.3058
 2  Cc1cc(C)c(/C=C2\C(=O)Nc3ccccc32)[nH]1 [NCGC00094381-04]               1.1366
 3  O=C1Nc2ccccc2/C1=C/c1ccccc1Cl [MLS001202425-01]               0.8675
 4  CCn1c(O)c(C(C#N)=C2N=c3ccccc3=N2)c2ccccc21 [MLS000564846-01]               0.9379
 5  COc1ccc(C(=O)/C=C2/C(=O)Nc3ccccc32)cc1OC [MLS001163860-01]               0.9610
 6  Cc1ccc2c(c1)/C(=C/c1ccccc1C)C(=O)N2 [MLS001202402-01]               0.8771
 7  Cc1ccc(/C=C2\C(=O)Nc3ccccc32)o1 [MLS000391588-01]               0.9885
 8  CCN(CC)CCNC(=O)c1c(C)[nH]c(/C=C2\C(=O)Nc3ccc(F)cc32)c1C [NCGC00164631-03]               0.7817
 9  Cc1ccc2c(c1)/C(=C/c1ccccc1F)C(=O)N2 [MLS001202330-01]               1.0099
10  CCOc1cc2c3c(c1)C(C)=CC(C)(C)N3C(=O)C2=O [MLS000710233-01]               0.8263
11  Cc1ncc(/C=C2\C(=O)Nc3ccccc32)[nH]1 [MLS000834757-01]               0.9101
12  O=C1Nc2ccccc2/C1=C/c1c[nH]cn1 [MLS000327715-01]               0.9664
13  O=C1Nc2ccccc2/C1=C/c1cnc(-c2ccccc2)[nH]1 [MLS000834756-01]               1.2652
